EXPERIMENT_SUMMARY: Binding affinity against nitrocefin
MEASURED_METRIC: Ki (µM)
Numbers only here, please. The scale is µM.

Which Ki is reported for this compound? CC1=C(C(=O)O)N2C(=S)[C@@H](NC(=O)Cc3ccccc3)[C@H]2SC1
720
